Biological target: LD78 receptor on the murine stem cell line FDCP cell mix (A4 cells) (murine)
Assay: displacement of 125I-LD78 from FDCP-mix A4 cells; % of wild-type activity based on IC50
Label label 1 when Receptor Binding % WT >= 20 % WT; otherwise label 0.

>>> assigned_class("LD78 Leu-Ser-Ala-Ser1>Pro Gly38>Ser Ser46>Gly (Mutant 35) (ligand) LSAPLAADTPTACCFSYTSRQIPQNFIADYFETSSQCSKPSVIFLTKRGRQVCADPSEEWVQKYVSDLELSA")
"label 0"
>>> assigned_class("LD78 Lys44>Ser (Mutant 42) (ligand) SLAADTPTACCFSYTSRQIPQNFIADYFETSSQCSKPGVIFLTSRSRQVCADPSEEWVQKYVSDLELSA")
"label 0"
>>> assigned_class("LD78 Arg17>Ser (Mutant 5) (ligand) SLAADTPTACCFSYTSSQIPQNFIADYFETSSQCSKPGVIFLTKRSRQVCADPSEEWVQKYVSDLELSA")
"label 1"
>>> assigned_class("LD78 Glu66>Ser (Mutant 52) (ligand) SLAADTPTACCFSYTSRQIPQNFIADYFETSSQCSKPGVIFLTKRSRQVCADPSEEWVQKYVSDLSLSA")
"label 1"
>>> assigned_class("LD78 Ser1>Ala (Mutant 54) (ligand) ALAADTPTACCFSYTSRQIPQNFIADYFETSSQCSKPGVIFLTKRSRQVCADPSEEWVQKYVSDLELSA")
"label 1"
>>> assigned_class("LD78 Arg17>Ser Gln18>Glu (Mutant 30) (ligand) SLAADTPTACCFSYTSSEIPQNFIADYFETSSQCSKPGVIFLTKRSRQVCADPSEEWVQKYVSDLELSA")
"label 0"
>>> assigned_class("LD78 Asp5>Ser (Mutant 37) (ligand) SLAASTPTACCFSYTSRQIPQNFIADYFETSSQCSKPGVIFLTKRSRQVCADPSEEWVQKYVSDLELSA")
"label 1"
>>> assigned_class("human LD78 (wild type, recombinant, expressed from a synthetic gene in yeast) (ligand) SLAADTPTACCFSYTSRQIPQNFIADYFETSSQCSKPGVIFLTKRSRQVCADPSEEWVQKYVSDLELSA")
"label 1"
